- protocol conditions: 343.15 K; 101.33 kPa; Liquid; Sing-around technique in a fixed-path interferometer
experimental endpoint: speed of sound (m/s)

{"columns": ["compound", "experimental endpoint", "unit spec", "result"],
 "data": [
  ["CC(C)COC(=O)CC[C@H]([NH3+])C(=O)OCC(C)C.CCCCCCCCCCCCOS(=O)(=O)[O-]", "speed of sound", "m/s", 1270.5],
  ["CC(C)COC(=O)[C@@H]1CCC[NH2+]1.CCCCCCCCCCCCOS(=O)(=O)[O-] [(S)-2-(isobutoxycarbonyl)pyrrolidinium dodecyl sulfate]", "speed of sound", "m/s", 1286.2],
  ["CC(C)COC(=O)[C@@H](N)C(C)C.CCCCCCCCCCCCOS(=O)(=O)O [isobutyl L-valinate dodecyl sulfate]", "speed of sound", "m/s", 1249.5],
  ["CC(C)OC(=O)[C@@H]([NH3+])C(C)C.CCCCCCCCCCCCOS(=O)(=O)[O-]", "speed of sound", "m/s", 1254.9],
  ["CC(C)OC(=O)CC[C@H]([NH3+])C(=O)OC(C)C.CCCCCCCCCCCCOS(=O)(=O)[O-]", "speed of sound", "m/s", 1233.6],
  ["CC(C)COC(=O)[C@H](C)[NH3+].CCCCCCCCCCCCOS(=O)(=O)[O-] [(S)-1-isobutoxy-1-oxopropan-2-aminium dodecyl sulfate]", "speed of sound", "m/s", 1246.6],
  ["CC(C)OC(=O)C[NH3+].CCCCCCCCCCCCOS(=O)(=O)[O-] [2-isopropoxy-2-oxoethan-1-aminium dodecyl sulfate]", "speed of sound", "m/s", 1245.8],
  ["CC(C)OC(=O)[C@@H]1CCC[NH2+]1.CCCCCCCCCCCCOS(=O)(=O)[O-] [(S)-2-(isopropoxycarbonyl)pyrrolidin-1-ium dodecyl sulfate]", "speed of sound", "m/s", 1284],
  ["CC(C)COC(=O)C[NH3+].CCCCCCCCCCCCOS(=O)(=O)[O-] [2-isobutoxy-2-oxoethan-1-aminium dodecyl sulfate]", "speed of sound", "m/s", 1248.7]
]}

---

- protocol conditions: 303.15 K; 101.33 kPa; Liquid; Vibrating tube method

{"columns": ["compound", "mass density, kg/m3"],
 "data": [
  ["CC(C)OC(=O)[C@@H]1CCC[NH2+]1.CCCCCCCCCCCCOS(=O)(=O)[O-] [(S)-2-(isopropoxycarbonyl)pyrrolidin-1-ium dodecyl sulfate]", 1043.15],
  ["CC(C)OC(=O)C[NH3+].CCCCCCCCCCCCOS(=O)(=O)[O-] [2-isopropoxy-2-oxoethan-1-aminium dodecyl sulfate]", 1025.14],
  ["CC(C)COC(=O)[C@@H]1CCC[NH2+]1.CCCCCCCCCCCCOS(=O)(=O)[O-] [(S)-2-(isobutoxycarbonyl)pyrrolidinium dodecyl sulfate]", 1032.22],
  ["CC(C)OC(=O)[C@@H]([NH3+])C(C)C.CCCCCCCCCCCCOS(=O)(=O)[O-]", 1022.44],
  ["CC(C)COC(=O)C[NH3+].CCCCCCCCCCCCOS(=O)(=O)[O-] [2-isobutoxy-2-oxoethan-1-aminium dodecyl sulfate]", 1013.62],
  ["CC(C)OC(=O)CC[C@H]([NH3+])C(=O)OC(C)C.CCCCCCCCCCCCOS(=O)(=O)[O-]", 1046.47],
  ["CC(C)COC(=O)[C@H](C)[NH3+].CCCCCCCCCCCCOS(=O)(=O)[O-] [(S)-1-isobutoxy-1-oxopropan-2-aminium dodecyl sulfate]", 1038.02]
]}

---

- test method notes: refractive index (Na D-line) (dimensionless)
- protocol conditions: 323.15 K; 101.33 kPa; Liquid; Standard Abbe refractometry
± gives the expanded uncertainty stated by the source.

{"columns": ["compound", "refractive index"],
 "data": [
  ["CC(C)COC(=O)[C@@H]1CCC[NH2+]1.CCCCCCCCCCCCOS(=O)(=O)[O-] [(S)-2-(isobutoxycarbonyl)pyrrolidinium dodecyl sulfate]", "1.4477 ± 0.0011"],
  ["CC(C)OC(=O)[C@@H]([NH3+])C(C)C.CCCCCCCCCCCCOS(=O)(=O)[O-]", "1.445 ± 0.0011"],
  ["CC(C)COC(=O)[C@H](C)[NH3+].CCCCCCCCCCCCOS(=O)(=O)[O-] [(S)-1-isobutoxy-1-oxopropan-2-aminium dodecyl sulfate]", "1.4418 ± 0.0011"],
  ["CC(C)OC(=O)C[NH3+].CCCCCCCCCCCCOS(=O)(=O)[O-] [2-isopropoxy-2-oxoethan-1-aminium dodecyl sulfate]", "1.4529 ± 0.0011"],
  ["CC(C)COC(=O)CC[C@H]([NH3+])C(=O)OCC(C)C.CCCCCCCCCCCCOS(=O)(=O)[O-]", "1.4472 ± 0.0011"],
  ["CC(C)COC(=O)[C@@H](N)C(C)C.CCCCCCCCCCCCOS(=O)(=O)O [isobutyl L-valinate dodecyl sulfate]", "1.4455 ± 0.0011"],
  ["CC(C)OC(=O)CC[C@H]([NH3+])C(=O)OC(C)C.CCCCCCCCCCCCOS(=O)(=O)[O-]", "1.4461 ± 0.0011"],
  ["CC(C)OC(=O)[C@@H]1CCC[NH2+]1.CCCCCCCCCCCCOS(=O)(=O)[O-] [(S)-2-(isopropoxycarbonyl)pyrrolidin-1-ium dodecyl sulfate]", "1.4461 ± 0.0011"],
  ["CC(C)COC(=O)C[NH3+].CCCCCCCCCCCCOS(=O)(=O)[O-] [2-isobutoxy-2-oxoethan-1-aminium dodecyl sulfate]", "1.4494 ± 0.0011"]
]}

---

- protocol conditions: 338.15 K; 101.33 kPa; Liquid; Sing-around technique in a fixed-path interferometer

{"columns": ["molecule", "unit spec", "speed of sound"],
 "data": [
  ["CC(C)COC(=O)[C@H](C)[NH3+].CCCCCCCCCCCCOS(=O)(=O)[O-] [(S)-1-isobutoxy-1-oxopropan-2-aminium dodecyl sulfate]", "m/s", 1261],
  ["CC(C)COC(=O)[C@@H]1CCC[NH2+]1.CCCCCCCCCCCCOS(=O)(=O)[O-] [(S)-2-(isobutoxycarbonyl)pyrrolidinium dodecyl sulfate]", "m/s", 1301.5],
  ["CC(C)OC(=O)CC[C@H]([NH3+])C(=O)OC(C)C.CCCCCCCCCCCCOS(=O)(=O)[O-]", "m/s", 1248.3],
  ["CC(C)COC(=O)C[NH3+].CCCCCCCCCCCCOS(=O)(=O)[O-] [2-isobutoxy-2-oxoethan-1-aminium dodecyl sulfate]", "m/s", 1263],
  ["CC(C)OC(=O)[C@@H]1CCC[NH2+]1.CCCCCCCCCCCCOS(=O)(=O)[O-] [(S)-2-(isopropoxycarbonyl)pyrrolidin-1-ium dodecyl sulfate]", "m/s", 1297.6],
  ["CC(C)OC(=O)[C@@H]([NH3+])C(C)C.CCCCCCCCCCCCOS(=O)(=O)[O-]", "m/s", 1270.4]
]}
